Data origin, for the record: patent US20220087987A1

# method.description: Drug library screen, cell viability (CellTiter-Glo)
# Type: cell-based, human
# reported.conditions: human; HCT116 ARID1A-WT; 10 μM for 5 days; relative to cells treated with solvent (DMSO); read-out: Cell viability, WT
# key: entry, value: viability at 5 days, 10 μM
Could you give me the number in %? Just the number is fine.

// viability at 5 days, 10 μM lookup, compound = CCCCCCCCCCC[C@@H](C[C@@H]1OC(=O)[C@H]1CCCCCC)OC(=O)[C@H](CC(C)C)NC=O [orlistat] , result: 84.6

// viability at 5 days, 10 μM lookup, compound = CC#C[C@]1(O)CC[C@H]2[C@@H]3CCC4=CC(=O)CCC4=C3[C@@H](c3ccc(N(C)C)cc3)C[C@@]21C [Mifepristone] , result: 95.9

// viability at 5 days, 10 μM lookup, compound = COCCn1c2c([n+](Cc3cnccn3)c1C)C(=O)c1ccccc1C2=O [YM155] , result: 2.67

// viability at 5 days, 10 μM lookup, compound = CC[C@H](C)C(=O)O[C@H]1C[C@@H](C)C=C2C=C[C@H](C)[C@H](CC[C@@H]3C[C@@H](O)CC(=O)O3)[C@H]21 [Lovastatin] , result: 132

// viability at 5 days, 10 μM lookup, compound = C/C=C/C/C=C/CCC(=O)[C@H]1O[C@H]1C(N)=O [Cerulenin] , result: 70

// viability at 5 days, 10 μM lookup, compound = O=c1oc2c(O)c(O)cc3c(=O)oc4c(O)c(O)cc1c4c23 [Ellagic acid] , result: 127

// viability at 5 days, 10 μM lookup, compound = Cc1nc(Nc2ncc(C(=O)Nc3c(C)cccc3Cl)s2)cc(N2CCN(CCO)CC2)n1 [dasatinib] , result: 33.5

// viability at 5 days, 10 μM lookup, compound = CC(Cc1ccc(O)c(O)c1)C(C)Cc1ccc(O)c(O)c1 (centres unmarked) [Nordihydroguaiaretic acid (NDGA), Nordihydroguaiaretic acid] , result: 101

* * *

# method.description: Drug library screen, cell viability (CellTiter-Glo)
# Type: cell-based, human
# reported.conditions: human; HCT116 ARID1A-WT; 10 μM for 5 days; relative to cells treated with solvent (DMSO); read-out: Cell viability, WT
quantity.measured: viability at 5 days, 10 μM

// solved cases for viability at 5 days, 10 μM follow
{"compound": "C[C@@H](Oc1cc(-c2cnn(C3CCNCC3)c2)cnc1N)c1c(Cl)ccc(F)c1Cl [crizotinib]", "quantity.measured": "viability at 5 days, 10 μM", "result": "2.29%"}
{"compound": "CN(Cc1cnc2nc(N)nc(N)c2n1)c1ccc(C(=O)N[C@@H](CCC(=O)O)C(=O)O)cc1 [Methotrexate]", "quantity.measured": "viability at 5 days, 10 μM", "result": "43%"}

Let's switch to this compound now.
// viability at 5 days, 10 μM lookup, compound = C[C@H](NC(=O)/C(C#N)=C/c1cccc(Br)n1)c1ccccc1 [WP1066] , result: 15.3%

* * *

# method.description: Drug library screen, cell viability (CellTiter-Glo)
# Assay type: cell-based, human
# reported.conditions: human; HCT116 ARID1A-WT; 10 μM for 5 days; relative to cells treated with solvent (DMSO); read-out: Cell viability, WT
# key: entry, value: viability at 5 days, 10 μM
Could you give me the number in %? Just the number is fine.

// solved cases for viability at 5 days, 10 μM follow
{"compound": "CS(=O)(=O)CCNCc1ccc(-c2ccc3ncnc(Nc4ccc(OCc5cccc(F)c5)c(Cl)c4)c3c2)o1", "output.unit": "%", "viability at 5 days, 10 μM": 52.7}
{"compound": "C[C@]1(c2nc3c(C(N)=O)cccc3[nH]2)CCCN1", "output.unit": "%", "viability at 5 days, 10 μM": 62.7}
{"compound": "Cc1c[nH]c(-c2cnc(NCCNc3ccc(C#N)cn3)nc2-c2ccc(Cl)cc2Cl)n1", "output.unit": "%", "viability at 5 days, 10 μM": 63.8}

// viability at 5 days, 10 μM lookup, compound = CCC1(c2ccc(N)cc2)CCC(=O)NC1=O (stereo not shown) [Aminoglutethimide] , result: 108

* * *

# method.description: Drug library screen, cell viability (CellTiter-Glo)
# Assay type: cell-based, human
# reported.conditions: human; HCT116 ARID1A-WT; 10 μM for 5 days; relative to cells treated with solvent (DMSO); read-out: Cell viability, WT
# label = T if viability < 30% else F

{"molecule": "C[C@]12CCC(=O)C(O)=C1CC[C@@H]1[C@@H]2CC[C@]2(C)C(=O)CC[C@@H]12", "class.assignment": "F"}

Problem: Find out if reported viability for CC(C)[C@@H]1NC(=O)[C@H](C)OC(=O)[C@@H](C(C)C)NC(=O)[C@@H](C(C)C)OC(=O)[C@H](C(C)C)NC(=O)[C@H](C)OC(=O)[C@@H](C(C)C)NC(=O)[C@@H](C(C)C)OC(=O)[C@H](C(C)C)NC(=O)[C@H](C)OC(=O)[C@@H](C(C)C)NC(=O)[C@@H](C(C)C)OC1=O is less than 30%
Solution: T

Problem: Find out if reported viability for CC[C@@]1(O)C[C@H](O[C@H]2C[C@H](N(C)C)[C@H](O[C@H]3C[C@H](O)[C@H](O[C@H]4CCC(=O)[C@H](C)O4)[C@H](C)O3)[C@H](C)O2)c2c(cc3c(c2O)C(=O)c2c(O)cccc2C3=O)[C@H]1C(=O)OC is less than 30%
Solution: T

Problem: Find out if reported viability for CN[C@@H]1C[C@H]2O[C@@](C)([C@@H]1OC)n1c3ccccc3c3c4c(c5c6ccccc6n2c5c31)C(=O)NC4 is less than 30%
Solution: T

* * *

# Test system: ARID1A-KO HCT116 cells
# method.description: Drug library screen, cell viability (CellTiter-Glo)
# Format: cell-based, human
# reported.conditions: HCT116 ARID1A-KO; 10 μM for 5 days; relative to cells treated with solvent (DMSO)
Peptide text beside a SMILES is read from it. * marks the point of attachment. Cbz = O=C(OCc1ccccc1)*; CH2Cl = ClC*
# key: entry, value: Cell viability, KO
// keep it numeric: no unit symbol after the value

// solved cases for Cell viability, KO follow
{"compound": "c1cc(-c2cnn3cc(-c4ccc(OCCN5CCCCC5)cc4)cnc23)ccn1 [compound C]", "system.name": "ARID1A-KO HCT116 cells", "recorded.number": 9.381}
{"compound": "CC(C)C[C@H](NC(=O)CNC(=O)OCc1ccccc1)C(=O)N[C@@H](Cc1ccccc1)C(=O)CCl [Z-GLF-CMK] (Cbz-Gly-Leu-Phe-CH2Cl)", "system.name": "ARID1A-KO HCT116 cells", "recorded.number": 4.8907}
{"compound": "COc1nccc(-c2c(-c3ccc(F)cc3)ncn2C2CCC(O)CC2)n1 (stereo not drawn) [SB239063]", "system.name": "ARID1A-KO HCT116 cells", "recorded.number": 174.3691}
{"compound": "CN(C)c1nc2c(Br)c(Br)c(Br)c(Br)c2[nH]1 [DMAT]", "system.name": "ARID1A-KO HCT116 cells", "recorded.number": 116.7866}

Considering O=C1C2CCN(CC2)C1(CO)CO [PRIMA-1] , its Cell viability, KO with ARID1A-KO HCT116 cells was recorded as 12.95

Considering CCCCCCCCCCCCCCOc1ccc(C(=O)O)o1 [TOFA] , its Cell viability, KO with ARID1A-KO HCT116 cells was recorded as 74.56

Considering NC(=O)c1ccc(-c2nc(-c3ccccn3)c(-c3ccc4c(c3)OCO4)[nH]2)cc1 [SB 431542] , its Cell viability, KO with ARID1A-KO HCT116 cells was recorded as 85.02

Considering COC(=O)c1ccc(NCc2cc(O)ccc2O)cc1 [AG957] , its Cell viability, KO with ARID1A-KO HCT116 cells was recorded as 17.53

Considering O=C(Cc1ccccc1)Nc1c2c(nc3ccccc13)N(Cc1ccccc1)CC2 [PGP-4008] , its Cell viability, KO with ARID1A-KO HCT116 cells was recorded as 117.1066

* * *

# key: entry, value: viability
# method.description: Drug library screen, cell viability (CellTiter-Glo)
# Format: cell-based, human
# reported.conditions: human
Could you give me the number in %? Just the number is fine.

{"compound": "O=C([O-])c1ccccc1O.[Na+] [Sodium salicylate]", "quantity.measured": "viability", "recorded.number": 177}

Let's switch to this compound now.
// viability lookup, compound = N#CC(=C(/N)Sc1ccccc1N)/C(C#N)=C(\N)Sc1ccccc1N , result: 80.5

* * *

# method.description: Drug library screen, cell viability (CellTiter-Glo)
# Format: cell-based, human
# reported.conditions: human; HCT116 ARID1A-WT; 10 μM for 5 days; relative to cells treated with solvent (DMSO); read-out: Cell viability, WT
# key: entry, value: viability at 5 days, 10 μM
Could you give me the number in %? Just the number is fine.

// solved cases for viability at 5 days, 10 μM follow
{"compound": "CC(C)(C)NC(=O)[C@H]1CC[C@H]2[C@@H]3CC[C@H]4NC(=O)C=C[C@]4(C)[C@H]3CC[C@]12C [Finasteride]", "viability at 5 days, 10 μM [%]": 99.6}
{"compound": "CNCc1ccc(-c2[nH]c3cc(F)cc4c3c2CCNC4=O)cc1 [AG014699 (Rucaparib), Rucaparib]", "viability at 5 days, 10 μM [%]": 18.7}
{"compound": "O=C(CCCCCCC(=O)Nc1ccccc1)NO", "viability at 5 days, 10 μM [%]": 2.82}

// viability at 5 days, 10 μM lookup, compound = O=C1NC(=O)c2c1c1c3ccccc3[nH]c1n1cncc21 [isogranulatimide] , result: 118

// viability at 5 days, 10 μM lookup, compound = CNC(=O)[C@H](Cc1c[nH]c2ccccc12)NC(=O)[C@@H](CC(=O)NO)CC(C)C , result: 188

// viability at 5 days, 10 μM lookup, compound = Cn1nnc2c(C(N)=O)ncn2c1=O [temozolomide] , result: 84.4
